This listing pairs molecules with measured viability, T/C.
system: 168753-222-R-J1-PDC complex spheroid viability; experiment: Anticancer human tumor 168753-222-R-J1-PDC patient-derived bladder carcinoma cell line growth inhibition [CLK]; conditions: second compound 0.316 µM; first compound 0.01 µM; hits give low values;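 also: luminescence signal used as surrogate for viable cell amount; viability measured after seven days of drug exposure; 100% = DMSO vehicle control wells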
Give the value, in units of %, as a plain number.

>  <Molecule>
Cn1ncnc1[C@H]1c2n[nH]c(=O)c3cc(F)cc(c23)N[C@@H]1c1ccc(F)cc1 + CNC(=O)c1ccc(Nc2nc(OC3CCCC3)c3c(-c4ccc5nc(C)oc5c4)c[nH]c3n2)c(OC)c1

>  <Assay Readout>
viability, T/C

>  <Readout Number>
85.2

$$$$

Challenge: Give me measured viability, T/C, please, for this molecule: COc1c(OCCCN2CCOCC2)ccc2c3n(c(=NC(=O)c4cnc(N)nc4)nc12)CCN3 + CNC(=O)c1ccc(Nc2nc(OC3CCCC3)c3c(-c4ccc5nc(C)oc5c4)c[nH]c3n2)c(OC)c1
Response given: 25.6

Challenge: Fill in reported viability, T/C for this entry: CCN1CCN(Cc2ccc(Nc3ncc(F)c(-c4cc(F)c5nc(C)n(C(C)C)c5c4)n3)nc2)CC1 + CN1CCN(c2cc(C(=O)Nc3cc4cc(-c5cnn(C)c5)ccc4cn3)ccn2)CC1
Response given: 9.45

Challenge: Give recorded viability, T/C. CCc1c2c(nc3ccc(O)cc13)-c1cc3c(c(=O)n1C2)COC(=O)[C@]3(O)CC + CN1CCN(c2cc(C(=O)Nc3cc4cc(-c5cnn(C)c5)ccc4cn3)ccn2)CC1
Response given: 8.44

Challenge: Quote viability, T/C reported for Cn1ncnc1[C@H]1c2n[nH]c(=O)c3cc(F)cc(c23)N[C@@H]1c1ccc(F)cc1 + CN1CCN(c2cc(C(=O)Nc3cc4cc(-c5cnn(C)c5)ccc4cn3)ccn2)CC1 please.
Response given: 7.96
